Test: in vivo
Type: in vitro ADME
Settings: plasma, atovaquone combined with nitazoxanide, read-out: average plasma protein binding rate, combined administration group (converted)
Excerpt: In addition, due to the high plasma protein binding rate of atovaquone and nitazoxanide, both about 99% (refer to Beerahee M Clinical pharmacology of atovaquone and proguanil hydrochloride. [J]. Journal of Travel Medicine, 1999, 6 suppl 1:S13-7.; Alinia™ PRESCRIBING INFORMATION-FDA.). The present application also studied and compared the in vivo plasma protein binding rate of atovaquone and nitazoxanide combined administration and separate administration. […]
Exercise: for every item that follows, state its recorded fraction unbound.
Numbers only.

CC(=O)Oc1ccccc1C(=O)Nc1ncc([N+](=O)[O-])s1 [NTZ] | 0.0016

Continue with the next compound.
Prompt line: Which fraction unbound value belongs to O=C1C(O)=C([C@H]2CC[C@H](c3ccc(Cl)cc3)CC2)C(=O)c2ccccc21 [ATQ] ?
Response line: 0.0014
